meta.source: patent US20100317607A1

# Tested on: H37Rv strain of M. tuberculosis
# protocol description: Alamar Blue Susceptibility Test (MABA)
# Assay type: cell-based
# condition set: Mycobacterium tuberculosis; H37Rv strain of M. tuberculosis; Alamar Blue; read-out: MABA (TB growth inhibition, colourimetric assay)
Where a name gives a salt, the structure may show the parent alone.
Entries and their measured MIC follow.
readout kind: MIC

compound | result
c1ccc2c(CNc3nc(N4CCCCC4)nc4ccccc34)ccnc2c1 | 10 to 50 µM
Clc1ccc(CNc2nc(N3CCCCC3)c3ccccc3n2)c(Cl)c1 [Compound 112, hydrochloride] | < 10 µM
CN(C)c1ccc(CNc2nc(N3CCCCC3)nc3ccccc23)cc1 | < 10 µM
C[C@@H](Nc1nc(N2CCCCC2)nc2ccccc12)c1ccccc1 | < 10 µM
CC(Nc1nc(N2CCCCC2)nc2ccccc12)c1ccccc1 (stereo not drawn) | 10 to 50 µM
c1ccc(CNc2nc(N3CCCCC3)nc3ccccc23)cc1 | < 10 µM
Fc1ccc(CNc2nc(N3CCCCC3)nc3ccccc23)c(F)c1 [Compound 115, hydrochloride] | < 10 µM
N#Cc1ccc(CNc2nc(N3CCCCC3)nc3ccccc23)cc1 | < 10 µM
Clc1ccc2nc(N3CCCCC3)nc(NCc3ccccc3)c2c1 | 10 to 50 µM
O=C(c1ccccc1)N1CCN(c2nc(NCc3ccccc3)c3ccccc3n2)CC1 | 10 to 50 µM
c1ccc(CNc2nc(N3CCNCC3)nc3ccccc23)cc1 | 50 to 128 µM
FC(F)(F)c1ccc(CNc2nc(NCc3ccccc3)c3ccccc3n2)cc1 [Compound 128, hydrochloride] | < 10 µM
CN1CCN(c2nc(NCc3ccccc3)c3ccccc3n2)CC1 [Compound 6, hydrochloride] | 50 to 128 µM
COc1cc2nc(NCc3ccc(F)cc3)nc(NCc3ccc(F)cc3)c2cc1OC | 10 to 50 µM
c1ccc(CNc2nc(N3CCCCC3)c3ccccc3n2)cc1 | 10 to 50 µM
COc1cccc(CNc2nc(N3CCCCC3)nc3ccccc23)c1 [Compound 82, hydrochloride] | 10 to 50 µM
Cc1ccc(CNc2nc(NCc3ccccc3)c3ccccc3n2)cc1 | 10 to 50 µM
Cc1ccc(CNc2nc(NCc3ccc(F)cc3)nc3ccccc23)o1 [Compound 158, hydrochloride] | 10 to 50 µM
